The origin of these recorded values is patent US4826856A.

assay: Bioavailability after oral administration in normal volunteers; assay type: in vivo, human; details: human, plasma, po, 20 mg, after acute administration; ±0.65 S.D.; read-out: mean T1/2 el. / terminal half life (converted)
Assay Readout: half-life (h)
I only need the number, in h, no unit after it.

# query: half-life of entry CCOC(=O)C1=C(C)NC(C)=C(C(=O)OCCN2CCCCC2)C1c1cccc([N+](=O)[O-])c1 (stereo not shown) 1.8

###

experiment: Acute toxicity in the mouse; settings: in vivo, po
Assay Readout: LD50
Could you give the number and then its unit, please?

Which LD50 is reported for this molecule? CCOC(=O)C1=C(C)NC(C)=C(C(=O)OCCN2CCCCC2)C1c1cccc([N+](=O)[O-])c1 (stereo not shown) [YS 201] 283 mg/kg
